- MEASURED ON: Alpha-2A adrenergic receptor (Homo sapiens)
- Sequence (P08913 whole entry): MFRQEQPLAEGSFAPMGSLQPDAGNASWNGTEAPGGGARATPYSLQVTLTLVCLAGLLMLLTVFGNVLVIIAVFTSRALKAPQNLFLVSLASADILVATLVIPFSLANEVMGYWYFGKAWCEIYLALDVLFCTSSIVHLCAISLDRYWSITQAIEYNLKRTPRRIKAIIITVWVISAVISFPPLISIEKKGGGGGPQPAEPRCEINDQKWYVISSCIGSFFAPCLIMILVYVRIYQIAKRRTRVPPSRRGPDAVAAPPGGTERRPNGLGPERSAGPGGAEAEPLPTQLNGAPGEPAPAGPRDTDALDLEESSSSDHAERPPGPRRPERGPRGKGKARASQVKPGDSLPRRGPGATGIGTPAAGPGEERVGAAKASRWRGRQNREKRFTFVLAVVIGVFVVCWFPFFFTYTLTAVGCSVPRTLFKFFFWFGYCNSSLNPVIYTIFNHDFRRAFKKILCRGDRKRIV
- MEASUREMENT DESCRIPTION: Affinity to human Alpha-2A adrenergic receptor determined by radioligand binding techniques from chinese hamster ovary (CHO) cells
- Type: cell-based
// NB: equality with 80 nM counts as NOT MET; only Ki strictly below is MET

For orientation, consider the following solved cases.
Below 80 nM on Ki? Entry CSc1cc(F)ccc1NCC1=NCCN1
MET

Given the entry CS(=O)(=O)c1cccc(F)c1NCC1=NCCN1 , would its reported Ki be below 80 nM?
NOT MET

# TODO verify Ki < 80 nM strictly for this compound: CCS(=O)(=O)c1ccccc1NCC1=NCCN1
NOT MET

Would you kindly verify if Ki of COc1ccc(S(C)(=O)=O)c(NCC2=NCCN2)c1 is strictly less than 80 nM?
NOT MET

Lab log: compare recorded Ki with 80 nM; is it strictly lower for CS(=O)(=O)c1ccc(F)cc1NCC1=NCCN1 ?
NOT MET

# strict comparison: is reported Ki < 80 nM? input = CS(=O)(=O)c1ccc(C(F)(F)F)cc1NCC1=NCCN1
NOT MET

---
Check if Ki falls below 80 nM for CSc1ccccc1NCC1=NCCN1 .
MET

* * *

- MEASURED ON: Alpha-1A adrenergic receptor (Homo sapiens)
- Sequence (whole entry): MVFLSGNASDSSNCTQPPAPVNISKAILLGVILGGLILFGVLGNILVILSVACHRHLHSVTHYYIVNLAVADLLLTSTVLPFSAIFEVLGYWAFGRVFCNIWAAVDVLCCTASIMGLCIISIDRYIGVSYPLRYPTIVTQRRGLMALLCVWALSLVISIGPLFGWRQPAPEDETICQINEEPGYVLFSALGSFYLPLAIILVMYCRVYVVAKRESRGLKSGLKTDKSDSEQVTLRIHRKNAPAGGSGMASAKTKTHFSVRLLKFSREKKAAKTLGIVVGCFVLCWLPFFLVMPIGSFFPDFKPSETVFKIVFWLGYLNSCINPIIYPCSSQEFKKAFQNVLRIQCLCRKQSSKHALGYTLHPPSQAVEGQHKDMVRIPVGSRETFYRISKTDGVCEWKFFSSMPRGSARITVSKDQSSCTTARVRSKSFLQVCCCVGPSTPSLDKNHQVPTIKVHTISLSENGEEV
- MEASUREMENT DESCRIPTION: Efficacy as % of the maximal effect observed for nonselective agonist phenylephrine in rat-1 fibroblasts expressing human Alpha-1 adrenergic receptor
- Type: functional
Reported values of Max for individual entries
Report the value in % with no unit label.

GET /value?item= CS(=O)(=O)Nc1ccc(F)c([C@@H](O)CN)c1 [NS-49] &field=Max returns 109

Others:
Measured Max, Cc1ccc(S(C)(=O)=O)c(NCC2=NCCN2)c1 : 98

Lab note: measured Max of CS(=O)(=O)c1ccc(C(F)(F)F)cc1NCC1=NCCN1 was 95

Reported Max ( C[S+]([O-])c1ccccc1NCC1=NCCN1 (centres undefined) ) = 91

* * *

- MEASURED ON: UniProt:P25100
- MEASUREMENT DESCRIPTION: Efficacy as percent maximal effect observed for nonselective agonist phenylephrine in rat-1 fibroblasts expressing human Alpha-1D adrenergic receptor
- Assay type: functional
If the reported Max equals or exceeds 90%, assign yes (1). If not, assign no (0).

hey, is Max for this one >= 90%? CSc1ccc(C(F)(F)F)cc1NCC1=NCCN1
no (0)

Is reported Max greater than or equal to 90% here: CSc1cc(F)ccc1NCC1=NCCN1
no (0)

Does CSc1ccc(C)cc1NCC1=NCCN1 have a reported Max of at least 90%?
yes (1)

Please indicate if the recorded Max for CSc1c(F)cccc1NCC1=NCCN1 meets or exceeds 90%.
no (0)

State whether the measured Max reaches 90%, counting equality as reaching it, for CCSc1ccccc1NCC1=NCCN1
no (0)

---
// inclusive: Max at least 90%? input: CSc1ccccc1NCC1=NCCN1
no (0)

Has CSc1ccc(F)cc1NCC1=NCCN1 a recorded Max greater than or equal to 90%?
yes (1)

Decide: Max of CSc1ccc(Cl)cc1NCC1=NCCN1 >= 90%?
yes (1)

* * *

- MEASURED ON: Alpha-2A adrenergic receptor (Homo sapiens)
- MEASUREMENT DESCRIPTION: Agonist potency at Alpha-2A adrenergic receptor expressed in CHO cells
- Assay type: functional, cell-based
METRIC NAME: EC50

According to the records, this compound CSc1c(F)cccc1NCC1=NCCN1 displays EC50 of 100 nM

The measured EC50 associated with CCS(=O)(=O)c1ccccc1NCC1=NCCN1 reads > 10000 nM

Field EC50 (entry C[S+]([O-])c1ccccc1NCC1=NCCN1 (stereo not drawn) ) reads > 10000 nM

Lab note: next compound to report on.
Query CC(C)S(=O)(=O)c1ccccc1NCC1=NCCN1 yields EC50 of > 10000 nM

* * *

Endpoint: Ki. System: Alpha-2C adrenergic receptor (Homo sapiens, UniProt P18825). Items follow.
Sequence (P18825 whole entry): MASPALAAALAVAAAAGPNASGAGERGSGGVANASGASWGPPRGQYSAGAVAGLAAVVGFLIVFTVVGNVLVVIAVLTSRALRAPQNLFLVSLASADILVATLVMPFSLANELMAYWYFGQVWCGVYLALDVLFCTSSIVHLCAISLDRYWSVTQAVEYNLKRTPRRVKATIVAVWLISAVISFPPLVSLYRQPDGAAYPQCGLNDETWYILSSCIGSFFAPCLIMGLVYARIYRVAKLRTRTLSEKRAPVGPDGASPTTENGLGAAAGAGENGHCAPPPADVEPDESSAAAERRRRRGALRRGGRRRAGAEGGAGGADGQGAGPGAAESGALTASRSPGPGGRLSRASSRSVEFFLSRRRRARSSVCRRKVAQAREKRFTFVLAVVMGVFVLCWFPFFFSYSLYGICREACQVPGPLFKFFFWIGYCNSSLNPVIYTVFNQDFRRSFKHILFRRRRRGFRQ
Please state the figure in nM; there is no need to write the unit.

molecule CCCS(=O)(=O)c1ccccc1NCC1=NCCN1 , Ki observed: 2630

More entries:
Data point: CSc1c(F)cccc1NCC1=NCCN1 ; Ki = 219

The molecule listed as CSc1ccccc1NCC1=NCCN1 shows Ki equal to 145

get_value(item= CCS(=O)(=O)c1ccccc1NCC1=NCCN1 , readout=Ki) returns 2510

* * *

# EC50 values compiled below
- MEASURED ON: Alpha-1D adrenergic receptor (Homo sapiens, UniProt P25100)
- Sequence (P25100 whole entry): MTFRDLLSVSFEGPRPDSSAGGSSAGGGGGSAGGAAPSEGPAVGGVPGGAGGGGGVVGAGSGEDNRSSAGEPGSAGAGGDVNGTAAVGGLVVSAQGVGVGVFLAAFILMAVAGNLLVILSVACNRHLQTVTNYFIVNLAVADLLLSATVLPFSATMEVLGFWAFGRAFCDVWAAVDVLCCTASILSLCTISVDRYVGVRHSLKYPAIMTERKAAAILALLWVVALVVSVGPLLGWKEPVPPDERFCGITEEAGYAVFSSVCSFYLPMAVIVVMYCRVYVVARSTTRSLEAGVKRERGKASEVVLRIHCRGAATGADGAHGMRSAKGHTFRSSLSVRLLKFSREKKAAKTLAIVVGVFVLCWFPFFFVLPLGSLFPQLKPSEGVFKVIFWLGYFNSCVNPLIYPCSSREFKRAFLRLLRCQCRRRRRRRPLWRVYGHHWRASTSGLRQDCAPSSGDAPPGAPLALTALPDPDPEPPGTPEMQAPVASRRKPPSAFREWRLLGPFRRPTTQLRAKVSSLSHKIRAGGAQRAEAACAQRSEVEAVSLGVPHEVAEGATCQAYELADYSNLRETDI
- MEASUREMENT DESCRIPTION: Agonist potency at Alpha-1D adrenergic receptor assayed in rat-1 fibroblasts expressing human alpha1d
- Assay type: functional

For reference, reported EC50 for C[S+]([O-])c1ccccc1NCC1=NCCN1 (configuration not stated) stands at > 100 µM

Shift focus to the following entry.
Measured EC50, CS(=O)(=O)c1ccccc1NCC1=NCCN1 : > 100 µM

* * *

- MEASURED ON: Alpha-1A adrenergic receptor (Homo sapiens, UniProt P35348)
- MEASUREMENT DESCRIPTION: Agonist potency at Alpha-1 adrenergic receptor assayed in rat-1 fibroblasts expressing human Alpha-1A
- Format: functional
METRIC NAME: EC50
Please make sure the unit comes right after the number.

Value of measured EC50 for the entry CS(=O)(=O)c1ccccc1NCC1=NCCN1 : 56.2 nM

Please find the next compound below.
Note to self: EC50 recorded for C[S+]([O-])c1ccccc1NCC1=NCCN1 (configuration not stated) was 490 nM

* * *

- MEASURED ON: Alpha-1D adrenergic receptor (Homo sapiens)
- Sequence (P25100 whole entry): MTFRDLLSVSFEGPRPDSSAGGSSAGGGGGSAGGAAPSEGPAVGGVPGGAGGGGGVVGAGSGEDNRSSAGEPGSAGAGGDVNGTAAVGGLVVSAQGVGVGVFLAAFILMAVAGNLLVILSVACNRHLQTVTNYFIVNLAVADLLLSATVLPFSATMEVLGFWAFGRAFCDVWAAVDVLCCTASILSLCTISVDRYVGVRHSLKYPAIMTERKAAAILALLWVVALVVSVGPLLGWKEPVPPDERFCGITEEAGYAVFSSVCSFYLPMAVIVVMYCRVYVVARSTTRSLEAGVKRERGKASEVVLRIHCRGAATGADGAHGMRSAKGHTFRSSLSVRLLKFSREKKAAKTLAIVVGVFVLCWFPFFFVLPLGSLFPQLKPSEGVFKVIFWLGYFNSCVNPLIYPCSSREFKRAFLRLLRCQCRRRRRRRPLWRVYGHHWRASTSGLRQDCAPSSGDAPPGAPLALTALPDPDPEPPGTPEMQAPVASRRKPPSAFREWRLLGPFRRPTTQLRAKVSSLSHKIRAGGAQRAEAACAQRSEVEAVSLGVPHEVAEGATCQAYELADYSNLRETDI
- MEASUREMENT DESCRIPTION: Agonist potency at aAlpha-1D adrenergic receptor assayed in rat-1 fibroblasts expressing human Alpha-1D adrenergic receptor
- Type: functional
METRIC NAME: EC50

Reported EC50 for CS(=O)(=O)c1cc(F)ccc1NCC1=NCCN1 was > 100 µM

Entry source: ChEMBL document CHEMBL1135421
